test system: DU-145 prostate; experiment: NCI tumour cell line growth inhibition, 48 h
reported_endpoint: TGI

CCc1ccc(CCC(=O)Nc2ncc(Cc3cc(Cl)ccc3Cl)s2)o1; > 50 µM
COC(=O)C1=C(C(=O)OC)SC(=C2c3ccsc3-c3sccc32)S1; > 100 µM
Cc1ccc(Cl)cc1Nc1nc(C(F)(F)F)ccc1C(=O)N/N=C/c1c(Cl)cccc1Cl; > 100 µM
OC(c1ccsc1)c1cc2ccccc2s1 (configuration not stated); > 10 µM
C=C1C(=O)O[C@H]2[C@H]1CC/C(C=Nc1ccc(C(F)(F)F)cc1N)=C\CC[C@@]1(C)O[C@@H]21; 13.1 µM

Could you share which TGI value was measured for "CC1(C)CC(=O)C(C(c2cccc(O)c2O)C2C(=O)CC(C)(C)CC2=O)C(=O)C1" ?
> 100 µM

Subsequent entry: COc1cc(COC(=O)N2CCCCC2C(=O)O)c([N+](=O)[O-])cc1OC (configuration not stated)
> 100 µM
